system: MS2 coat protein; test: apparent KD of MS2 coat protein; higher = weaker reporter binding; details: Eterna round: R107; input ligand: tryptophan 2.4 mM
// map apparent KD of MS2 coat protein to label using lower segment (below 20 nM), middle segment (20 nM to below 60 nM), upper segment (60 nM or more)

Use the examples below as a reference point.
Ask | Which apparent KD of MS2 coat protein category applies to AAUCCAAGAAAUGAUACCAGUCCCACUCAGGACAUGAGGAUCACCCAUGUAAUACAGGGAGACCCUUGGCAGCAUCGAAUAAACA [theeternabot_sameState_MS2_Theo_B_33] here?
Reply | upper segment

Ask | Field entry: GAUAUGGAAACAUGUCAGAUCCUUACCGGUCGAGGACCGGUACGGCCGCCACUCGAAAACGAUGUACAUGAGGAUCACCCAUGUA [Ex Tryptophan A 19]
Reply | middle segment

Ask | Field entry: UUCGUUUACGGAAGGAGCGACGGACAUCGGUGAUCUAUGCACAUGAGGAUCACCCAUGUACGUCAGGUAGGUCGCCGUUAAGAGU [XArg-B28]
Reply | lower segment

Ask | Field entry: ACUAGUUGUGCAGAUACCAGACAUGAGGAUCACCCAUGUUUGGGUUGUUCGCAACUUCCUGUCCCUUGGCAGCUGUACAUCUAGA [Omei Theo B Exc v5]
Reply | middle segment

Ask | Field entry: ACAUGAGGAUCACCCAUGUACAUAAGGGAAGGAGCGCGGUGGAACGCAGGUAGGUCGCCCAUAAUAACAAUAAAUAAAUUCAUGU [#04 Same State - Arginine A]
Reply | lower segment

Ask | Field entry: UGUUAUGUGGGAAGGAGCGCAUACUUCACAUGAGGAUCACCCAUGUCAAGACGUGAGUCAGUGCAGGUAGGUCGCCUAGUUAAGA [Same State - Arginine B (Freestyle 17)]
Reply | middle segment

Ask | Field entry: UCAAGUGAACCAUGGAAACAUUCAAUAGAUACCAGCAUUAAAACCUGCCCUUGGCAGCUAUGAACAUGAGGAUCACCCAUGUGAA [theeternabot_exclusion_MS2_Theo_A_21]
Reply | lower segment

Ask | Field entry: AGUGGGUGUUAUGAUACCAGCGUAAUACACAACAUGAGGAUCACCCAUGUGGAGCCUCGCCGCCCUUGGCAGCAUUGGGCCCGCA [theeternabot_sameState_MS2_Theo_B_4]
Reply | upper segment

Ask | Field entry: GAGGGUGGGUCUCUAAUCCGUUUGACGGAUACCAGCGAGAGAUAUCGCCCUUGGCAGCCGACGACAUGAGGAUCACCCAUGUAAA [#06 Exclusion-TheophyllineA]
Reply | lower segment

New cases:
Ask | Which apparent KD of MS2 coat protein category applies to CUAUAAGUAACUGAUACCAGUGUACUGACAUGAGGAUCACCCAUGUUGGGUUUUGUUGUACACCCUUGGCAGCAGAAUCUUAUAG [AstrosExyTheB#14] here?
Reply | upper segment

* * *

system: MS2 coat protein; assay: apparent KD of MS2 coat protein; designed switch direction (-1 OFF switch, 1 ON switch): -1; higher = weaker reporter binding; details: input ligand: microRNA oligo, concentration not stated
Recorded apparent KD of MS2 coat protein by entry
# value in nM; strip the unit string

Solved cases below.
Ask | Reported apparent KD of MS2 coat protein for GUCAGCUCGUCAGGAUAUACAUGCGUGCUUCGGCACGAAUUUAAGAUCACAUGAGGAUCACCCAUGUAGAAGGGACGAGCUGAU [ENG2/3-B2] (Eterna round: R96, puzzle: Exclusion NG 2) : what is it?
Reply | 441

Ask | Field entry: ACAUGAGGGAAGGGAGGAGGGACAUGAGGAUCACCCAUGUCUCAGGAUAUAGAAGAAGAAAGAAACUAGAAGGGAGAGGAGGGU [Kawasakiqro] (Eterna round: R96, puzzle: Exclusion NG 3)
Reply | 16.6

New cases:
Ask | Reported apparent KD of MS2 coat protein for CGUCCUGAUGACAACUUACAUGAGGAUCACCCAUGUGCCUCGCAGGAUAUCCCAGCACGUCGCAAGGAGAAGGGCGACGCGCCA [Ceeninge] (Eterna round: R96, puzzle: Exclusion NG 3) : what is it?
Reply | 13.7
